- MEASUREMENT_TARGET: T1, CD40 ligand (UniProt P29965 108-261, limits assumed)
- T1 construct: Used immobilised, soluble, or biotinylated on streptavidin beads; also called CD154; soluble CD40L
- T1 sequence (looked up): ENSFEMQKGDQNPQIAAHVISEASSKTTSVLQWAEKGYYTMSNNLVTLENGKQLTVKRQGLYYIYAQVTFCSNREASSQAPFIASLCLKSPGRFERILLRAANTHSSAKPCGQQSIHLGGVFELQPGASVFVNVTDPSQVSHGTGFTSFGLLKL
- PROCEDURE_DETAILS: Alphascreen, unmodified peptide, inhibition of CD40L/CD40-Fc
pEC50: −log10 of the molar value.
# pEC50 per record follows
RESULT_TYPE: pEC50

BINDER: HPFSIKNVFCIWNFFSVY (Base peptide) [CD40L M1_6]
RECORDED_VALUE: 6.36
--
BINDER: PPRYNLFFLFRFYCSFRRDYLYF (Base peptide) [CD40L M1_9]
RECORDED_VALUE: 6.43
--
BINDER: LWRLNEWNYSDAELLSLIEWCIDH (Base peptide) [CD40L M8_721]
RECORDED_VALUE: 6.28
--
BINDER: PFTWRPTIFWIIQLIVYMRHF (Base peptide; also called CD40L M1-206) [CD40L M7_206]
RECORDED_VALUE: 6.72
